Each entry below carries its reported PPARγ (GAL4 reporter) % efficacity relative to rosiglitazone.
- targetDesc: human PPARγ ligand binding domain (LBD) (Homo sapiens, UniProt P37231)
- Construct: PPARγ (S176-Y477); host or cells: HEK293
- Sequence (P37231 204-505): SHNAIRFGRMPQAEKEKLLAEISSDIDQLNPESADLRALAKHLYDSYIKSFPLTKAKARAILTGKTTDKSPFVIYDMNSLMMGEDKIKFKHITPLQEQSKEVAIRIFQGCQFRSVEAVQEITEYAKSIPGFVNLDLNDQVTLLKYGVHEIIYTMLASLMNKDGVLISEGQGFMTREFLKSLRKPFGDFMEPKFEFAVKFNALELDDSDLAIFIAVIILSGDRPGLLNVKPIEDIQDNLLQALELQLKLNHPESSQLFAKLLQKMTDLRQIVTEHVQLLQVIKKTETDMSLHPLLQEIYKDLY
- experimentSummary: Cell-based GAL4 PPAR transactivation assay in HEK293 cells, PPARγ; also: test concentration or dose not given here
- conditionContext: 24 h
endpoint: PPARγ (GAL4 reporter) % efficacity relative to rosiglitazone (%)

{"columns": ["compound", "endpointResult"],
 "data": [
  ["CC1(C)CC1CCCCC1CC1C(=O)[O-].[Na+] (stereo not shown)", 5],
  ["[2H]C1([2H])C(CCCCCC)C1CC(=O)[O-].[Na+] (stereo not shown)", 3],
  ["CCCCCCC1C(CC(=O)[O-])C1(C)C.[Na+] (stereo not shown) [drawing 322]", 8],
  ["CCCCCCC1CC1C(=O)C(=O)[O-].[Na+] (stereo not shown)", 2],
  ["CCCCCCC1C(CC(=O)[O-])C1(C)C.[Na+] (stereo not shown) [drawing 323]", 4],
  ["CC1(C)CC1CCCCC/C=C/C(=O)[O-].[Na+] (stereo not shown)", 1],
  ["CCCCCCCC1CC1C(=O)[O-].[Na+] (stereo not shown)", 16]
]}

====

- targetDesc: UniProtKB O14842
- Sequence (O14842 whole entry): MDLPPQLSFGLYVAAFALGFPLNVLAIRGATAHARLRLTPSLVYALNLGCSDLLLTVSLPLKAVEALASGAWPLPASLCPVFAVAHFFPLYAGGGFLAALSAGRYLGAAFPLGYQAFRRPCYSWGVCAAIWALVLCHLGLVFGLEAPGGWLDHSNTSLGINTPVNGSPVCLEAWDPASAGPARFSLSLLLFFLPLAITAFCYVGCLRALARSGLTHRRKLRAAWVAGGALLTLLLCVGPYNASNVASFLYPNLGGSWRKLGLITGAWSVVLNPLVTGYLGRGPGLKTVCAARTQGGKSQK
- experimentSummary: GPR40 β-arrestin 2 recruitment BRET, agonist mode
- conditionContext: HEK293 cells, read-out: GPR40 (agonist mode) EC50 β-arr2

{"columns": ["compound", "relationQualifier", "EC50, µM"],
 "data": [
  ["CCCCCCCC1(CC(=O)O)CCC1", "=", 21],
  ["CCCCCC1CC(CC(=O)O)C1(C)C (stereo not shown)", "=", 15],
  ["CCCCCC1C(CCC(=O)O)C1(C)C (stereo not shown)", "=", 27],
  ["CCCCCCCC1CC1C(=O)O (stereo not shown)", "=", 49],
  ["[2H]C1([2H])C(CCCCCCC)C1CC(=O)[O-].[Na+] (stereo not shown)", "=", 149],
  ["CCCCCCC1OC1CC(=O)O (stereo not shown)", ">", 500],
  ["CCCCCC1CC(=CC(=O)O)C1 (stereo not shown)", "=", 70],
  ["CC1(C)CC1CCCCCCCC(=O)O (stereo not shown)", "=", 11],
  ["CCCCCCC1C(CC(=O)O)C1(C)C (stereo not shown) [drawing 311]", "=", 174],
  ["CCCCCC1C(CCC(=O)O)C1(F)F (stereo not shown)", "=", 133],
  ["CCCCCC1CC(CC(=O)O)C1 (stereo not shown)", "=", 87],
  ["CCCCCC1C(CCC(=O)O)C1(Br)Br (stereo not shown)", "=", 16],
  ["CCCCCC1CCC1CC(=O)O (stereo not shown)", "=", 83],
  ["CCCCCCC1CC1CC(=O)O (stereo not shown)", "=", 170],
  ["CC1(C)CC1CCCCC/C=C/C(=O)O (stereo not shown)", "=", 22],
  ["CC1(C)CC1CCCCCC1CC1C(=O)O (stereo not shown)", "=", 14.3],
  ["CCCCCCC1C(CC(=O)O)C1(C)C (stereo not shown) [drawing 299]", "=", 30],
  ["CCCCC[C@H]1CCC[C@@H](CC(=O)O)C1", "=", 12],
  ["CCCCCCC1C(CCC(=O)O)C1(C)C (stereo not shown)", "=", 10],
  ["CCCCCCCCC1(C(=O)O)CC1", "=", 164],
  ["CCCCCCCC1(CC(=O)O)CC1", "=", 122],
  ["CCCCCCC1C(CC(=O)O)C1(F)F (stereo not shown)", "=", 126],
  ["CCCCCCC1C(CC(=O)O)C1(C)C (stereo not shown) [drawing 302]", ">", 63],
  ["CCCC[C@H]1CC[C@H](CCC(=O)O)CC1", "=", 21],
  ["CCCCCCC1CC1C(=O)C(=O)O (stereo not shown)", "=", 321],
  ["CCCCCC1CC/C1=C/C(=O)O (stereo not shown)", "=", 211],
  ["CCCCCCC1CC(C(=O)O)C1 (stereo not shown)", "=", 63.4],
  ["CCCCCC=C1CC(C(=O)O)C1 (stereo not shown)", "=", 252]
]}

====

- targetDesc: human GPR84 (Homo sapiens)
- Sequence (Q9NQS5 whole entry): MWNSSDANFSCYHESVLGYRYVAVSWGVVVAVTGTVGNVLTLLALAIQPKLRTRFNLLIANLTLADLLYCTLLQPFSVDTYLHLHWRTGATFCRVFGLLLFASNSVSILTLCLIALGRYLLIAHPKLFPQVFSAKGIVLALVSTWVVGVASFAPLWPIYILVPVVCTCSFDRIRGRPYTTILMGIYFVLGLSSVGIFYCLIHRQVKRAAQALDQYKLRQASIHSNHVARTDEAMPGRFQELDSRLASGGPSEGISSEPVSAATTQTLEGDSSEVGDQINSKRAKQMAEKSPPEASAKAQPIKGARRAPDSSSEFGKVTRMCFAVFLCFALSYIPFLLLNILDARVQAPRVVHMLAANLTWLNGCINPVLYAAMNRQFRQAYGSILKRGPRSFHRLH
- experimentSummary: GPR84 Gαi BRET biosensor, antagonist mode (125 μmol/L sodium decanoate)
- conditionContext: HEK293 cells, with 125 μmol/L sodium decanoate
Items are presented alongside their recorded IC50.
endpoint: IC50 (µM)

{"columns": ["molecule", "targetDesc", "endpoint", "readoutUnits", "relationQualifier", "endpointResult"],
 "data": [
  ["CCCCCCC1C(CC(=O)O)C1(F)F (stereo not drawn)", "human GPR84 (Homo sapiens)", "IC50", "µM", "=", 117],
  ["CCCCCC1CC/C1=C/C(=O)O (stereo not drawn)", "human GPR84 (Homo sapiens)", "IC50", "µM", "=", 180],
  ["CCCCCCCCC1(C(=O)O)CC1", "human GPR84 (Homo sapiens)", "IC50", "µM", "=", 115],
  ["CCCCCC1CCC1CC(=O)O (stereo not drawn)", "human GPR84 (Homo sapiens)", "IC50", "µM", "=", 173],
  ["CCCCCC1CC(CC(=O)O)C1(C)C (stereo not drawn)", "human GPR84 (Homo sapiens)", "IC50", "µM", "=", 49],
  ["CCCC[C@H]1CC[C@H](CCC(=O)O)CC1", "human GPR84 (Homo sapiens)", "IC50", "µM", "=", 22],
  ["CCCCCCC1C(CC(=O)O)C1(C)C (stereo not drawn) [drawing 311]", "human GPR84 (Homo sapiens)", "IC50", "µM", "=", 468],
  ["CCCCC[C@H]1CCC[C@@H](CC(=O)O)C1", "human GPR84 (Homo sapiens)", "IC50", "µM", "=", 56],
  ["CCCCCC=C1CC(C(=O)O)C1 (stereo not drawn)", "human GPR84 (Homo sapiens)", "IC50", "µM", "=", 131],
  ["CCCCCCCC1(CC(=O)O)CC1", "human GPR84 (Homo sapiens)", "IC50", "µM", ">", 500],
  ["CCCCCC1C(CCC(=O)O)C1(C)C (stereo not drawn)", "human GPR84 (Homo sapiens)", "IC50", "µM", ">", 63],
  ["CCCCCCC1C(CC(=O)O)C1(C)C (stereo not drawn) [drawing 299]", "human GPR84 (Homo sapiens)", "IC50", "µM", "=", 56],
  ["CCCCCCC1C(CCC(=O)O)C1(C)C (stereo not drawn)", "human GPR84 (Homo sapiens)", "IC50", "µM", "=", 9],
  ["CCCCCC1C(CCC(=O)O)C1(Br)Br (stereo not drawn)", "human GPR84 (Homo sapiens)", "IC50", "µM", "=", 20],
  ["CCCCCCCC1(CC(=O)O)CCC1", "human GPR84 (Homo sapiens)", "IC50", "µM", ">", 63]
]}

====

- targetDesc: human PPARδ ligand binding domain (LBD) (Homo sapiens)
- Construct: PPARδ (S139-Y440); host or cells: HEK293
- Sequence (Q03181 139-441 limits assumed): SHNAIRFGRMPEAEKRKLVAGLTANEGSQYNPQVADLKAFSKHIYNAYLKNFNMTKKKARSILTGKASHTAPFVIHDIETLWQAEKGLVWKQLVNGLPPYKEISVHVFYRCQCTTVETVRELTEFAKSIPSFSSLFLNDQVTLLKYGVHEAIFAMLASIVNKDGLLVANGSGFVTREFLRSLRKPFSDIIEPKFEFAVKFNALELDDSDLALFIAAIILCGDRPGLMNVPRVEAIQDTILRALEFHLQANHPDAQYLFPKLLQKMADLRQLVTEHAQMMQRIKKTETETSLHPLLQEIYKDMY
- experimentSummary: Cell-based GAL4 PPAR transactivation assay in HEK293 cells, PPARδ; also: test concentration or dose not given here
- conditionContext: 24 h
endpoint: PPARδ (GAL4 reporter) % efficacity relative to GW0742 (%)

{"columns": ["compound", "readoutUnits", "endpointResult"],
 "data": [
  ["CCCCCCC1CC1C(=O)C(=O)[O-].[Na+] (stereo not shown)", "%", "−3"],
  ["CCCCCCCC1CC1C(=O)[O-].[Na+] (stereo not shown)", "%", 4],
  ["CCCCCCC1C(CC(=O)[O-])C1(C)C.[Na+] (stereo not shown) [drawing 323]", "%", "−6"],
  ["CC1(C)CC1CCCCC/C=C/C(=O)[O-].[Na+] (stereo not shown)", "%", 30],
  ["[2H]C1([2H])C(CCCCCC)C1CC(=O)[O-].[Na+] (stereo not shown)", "%", 2],
  ["CC1(C)CC1CCCCC1CC1C(=O)[O-].[Na+] (stereo not shown)", "%", 5],
  ["CCCCCCC1C(CC(=O)[O-])C1(C)C.[Na+] (stereo not shown) [drawing 322]", "%", 2]
]}

====

The following compounds are shown together with reported pEC50 values.
- targetDesc: human GPR120 (Homo sapiens, UniProt Q5NUL3)
- Sequence (Q5NUL3 whole entry): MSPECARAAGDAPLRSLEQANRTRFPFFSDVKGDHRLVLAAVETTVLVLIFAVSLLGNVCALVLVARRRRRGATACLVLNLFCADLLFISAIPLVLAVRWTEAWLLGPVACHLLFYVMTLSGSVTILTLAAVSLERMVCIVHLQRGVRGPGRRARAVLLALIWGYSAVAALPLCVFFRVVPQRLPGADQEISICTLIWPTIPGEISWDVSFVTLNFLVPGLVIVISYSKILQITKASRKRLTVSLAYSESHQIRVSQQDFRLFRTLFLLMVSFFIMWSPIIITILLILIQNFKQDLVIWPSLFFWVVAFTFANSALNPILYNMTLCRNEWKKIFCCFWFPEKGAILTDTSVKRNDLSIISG
- experimentSummary: GPR120 β-arrestin 2 recruitment BRET, agonist mode
- conditionContext: HEK293 cells, read-out: GPR120 (agonist mode) EC50 β-arr2
pEC50: −log10 of the molar value.

{"columns": ["compound", "relationQualifier", "pEC50"],
 "data": [
  ["CCCCCC1CC(CC(=O)O)C1(C)C (stereo not shown)", "=", 4.05],
  ["CCCCCC1CC(CC(=O)O)C1 (stereo not shown)", "<", 3.30],
  ["CCCCCC1C(CCC(=O)O)C1(F)F (stereo not shown)", "<", 3.30],
  ["CCCCC[C@H]1CCC[C@@H](CC(=O)O)C1", "=", 3.42],
  ["CCCCCCCC1(CC(=O)O)CCC1", "<", 4.20],
  ["CC1(C)CC1CCCCCCCC(=O)O (stereo not shown)", "=", 4.11],
  ["CCCCCC1C(CCC(=O)O)C1(Br)Br (stereo not shown)", "=", 4.35],
  ["CC1(C)CC1CCCCC/C=C/C(=O)O (stereo not shown)", "=", 4.21],
  ["CCCC[C@H]1CC[C@H](CCC(=O)O)CC1", "=", 4.66],
  ["CCCCCCCC1CC1C(=O)O (stereo not shown)", "<", 3.60],
  ["CCCCCCC1C(CC(=O)O)C1(C)C (stereo not shown) [drawing 302]", "<", 4.20],
  ["CCCCCCC1C(CCC(=O)O)C1(C)C (stereo not shown)", "<", 4.51],
  ["[2H]C1([2H])C(CCCCCCC)C1CC(=O)[O-].[Na+] (stereo not shown)", "=", 3.52],
  ["CCCCCCC1C(CC(=O)O)C1(C)C (stereo not shown) [drawing 311]", "<", 3.30],
  ["CCCCCC1C(CCC(=O)O)C1(C)C (stereo not shown)", "<", 4.20],
  ["CC1(C)CC1CCCCCC1CC1C(=O)O (stereo not shown)", "=", 4.46],
  ["CCCCCCCCC1(C(=O)O)CC1", "=", 3.61],
  ["CCCCCC1CC(=CC(=O)O)C1 (stereo not shown)", "=", 4.06],
  ["CCCCCCC1C(CC(=O)O)C1(C)C (stereo not shown) [drawing 299]", "<", 3.90],
  ["CCCCCC=C1CC(C(=O)O)C1 (stereo not shown)", "<", 3.30],
  ["CCCCCCC1CC1CC(=O)O (stereo not shown)", "=", 3.57],
  ["CCCCCC1CC/C1=C/C(=O)O (stereo not shown)", "=", 3.51],
  ["CCCCCCC1C(CC(=O)O)C1(F)F (stereo not shown)", "=", 3.42],
  ["CCCCCCC1CC(C(=O)O)C1 (stereo not shown)", "=", 3.42],
  ["CCCCCCC1CC1C(=O)C(=O)O (stereo not shown)", "<", 3.30],
  ["CCCCCC1CCC1CC(=O)O (stereo not shown)", "<", 3.30],
  ["CCCCCCC1OC1CC(=O)O (stereo not shown)", "<", 3.30],
  ["CCCCCCCC1(CC(=O)O)CC1", "≤", 3.30]
]}
